Reported MIC values for a set of molecules
# Tested on: G(−) bacterial strains
# EXPERIMENTAL PROTOCOL: Dilution antimicrobial susceptibility tests (MIC, NCCLS agar dilution / broth dilution)
# Type: cell-based, Gram-negative organisms
# TEST CONTEXT: strain #24 Serratia marcescens; unit assumed
Just the number in µg/mL, nothing appended.

Use these answered entries as a reference point.
> print(dat)
                                   molecule   unit  readout.number
1  C[C@@H](O)C1C(=O)N2C(C(=O)O)=C(CN3CC[C@H](C(=O)NS(C)(=O)=O)C3)[C@H](C)C12 (stereo partly shown)  µg/mL               1
2  C[C@@H](O)C1C(=O)N2C(C(=O)O)=C(CN3CC[C@H](N)C3)[C@H](C)C12 (stereo partly shown)  µg/mL               1
3  C[C@@H](O)C1C(=O)N2C(C(=O)O)=C(CN3CC[C@H](C#N)C3)[C@H](C)C12 (stereo partly shown)  µg/mL             0.5

Given the molecule C[C@@H](O)C1C(=O)N2C(C(=O)O)=C(CN3CC[C@@H](C(N)=O)C3)[C@H](C)C12 (stereo partly shown) and test system G(−) bacterial strains, the measured MIC is 1

Given the molecule C[C@@H](O)C1C(=O)N2C(C(=O)O)=C(CN3CC(NC(=N)N)C3)[C@H](C)C12 (stereo partly shown) and test system G(−) bacterial strains, the measured MIC is 0.5

Given the molecule C[C@@H](O)C1C(=O)N2C(C(=O)O)=C(CN3CCC(NC(=O)CNC(=N)N)C3)[C@H](C)C12 (stereo partly shown) and test system G(−) bacterial strains, the measured MIC is 4

Given the molecule C[C@@H](O)C1C(=O)N2C(C(=O)O)=C(CN3CC[C@H](NC(=N)NS(C)(=O)=O)C3)[C@H](C)C12 (stereo partly shown) and test system G(−) bacterial strains, the measured MIC is 2

###

# Tested on: G(−) bacterial strains
# EXPERIMENTAL PROTOCOL: Dilution antimicrobial susceptibility tests (MIC, NCCLS agar dilution / broth dilution)
# Assay type: cell-based, Gram-negative organisms
# TEST CONTEXT: strain #9 Enterobacter cloacae, Cf-R; unit assumed
Strictly below 0.5 µg/mL in MIC: Criterion met. Otherwise: Criterion not met.

Worked cases, answers included:
> print(dat)
                                   molecule             measured.on           category
1  C[C@@H](O)C1C(=O)N2C(C(=O)O)=C(CN3CCC(NC(=O)CNC(=N)N)C3)[C@H](C)C12 (stereo partly shown)  G(−) bacterial strains  Criterion not met
2  C[C@@H](O)C1C(=O)N2C(C(=O)O)=C(CN3CC[C@H](NC(=O)CNS(N)(=O)=O)C3)[C@H](C)C12 (stereo partly shown)  G(−) bacterial strains  Criterion not met
3  C[C@@H](O)C1C(=O)N2C(C(=O)O)=C(CN3CC(NC(=N)N)C3)[C@H](C)C12 (stereo partly shown)  G(−) bacterial strains      Criterion met

Exercise: MIC under 0.5 µg/mL? Item: C[C@@H](O)C1C(=O)N2C(C(=O)O)=C(CN3CC[C@H](C#N)C3)[C@H](C)C12 (stereo partly shown)
Solution: Criterion met

Exercise: MIC under 0.5 µg/mL? Item: C[C@@H](O)[C@H]1C(=O)N2C(C(=O)O)=C(CN3CC(O)C(NC(=N)N)C3)[C@H](C)[C@H]12 (mixture of isomers)
Solution: Criterion met
